assay: BSK_3C_Vis: BioMAP Diversity Plus: 3C Assay for Morphology Visualization (AID 2283025); details: primary human endothelial cells (HUVEC);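 note: fitted both ways so gain or loss versus DMSO counts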
Active and inactive are the calls of the source. Rule for the calls: active = hit-call score of the fitted dose curve at least 0.9, where 1 is the maximum; inactive = score below 0.9.
Select the matching outcome among 1 for active, -1 for inactive

As a guide, the following entries are already answered.
- Compound: "CCOCN(C(=O)CCl)c1c(C)cccc1CC"
  Class Name: 1
- Compound: "CCOc1nc(NC)nc(NC(=O)NS(=O)(=O)c2ccccc2C(=O)OC)n1"
  Class Name: -1

Look up the recorded call for O=S1OCC2C(CO1)C1(Cl)C(Cl)=C(Cl)C2(Cl)C1(Cl)Cl (stereo unspecified) in this test.
1

Which outcome did this test record for the compound Clc1ccccc1-c1nnc(-c2ccccc2Cl)nn1 ?
-1

Field: outcome | Entry: O=[N+]([O-])/N=C1\NCCN1Cc1ccc(Cl)nc1
-1

Identify the outcome logged in this assay for the compound shown: CCOC1Oc2ccc(OS(C)(=O)=O)cc2C1(C)C (stereo unspecified)
-1
